These data points were gathered from ChEMBL document CHEMBL4049414.

Procedure Text: Cmax in mouse spleen at 50 mg/kg, sc
Assay type: ADME, organism-based
Design: dose 50 mg/kg, route subcutaneous
Quantity Kind: Cmax

Give reported Cmax value for C[C@H]1[C@@H](c2cccc(C(F)(F)F)c2)OC(=O)N1C(=O)NCc1cncc2ccccc12
29 µM
